Sourced from patent US9936701B2

test system: a variety of test species; assay: Pre-emergence herbicidal activity (glasshouse, sprayed one day after sowing, evaluated after 13 days); assay type: in vivo; settings: ZEAMX, application pre-emergence, rate 1000 g/Ha, scale 0-5
result.type: Pre-emergence herbicidal damage score, ZEAMX
Give your answer as a number; write no unit.

CC1=C(Cl)C(=O)N(c2cc(C(C)(C)C#N)on2)C1O (centres unmarked) ... 2
COC1=C(Cl)CN(c2cc(C(C)(C)C)on2)C1=O ... 1
CC1=C(Cl)C(=O)N(c2noc(C(C)(C)C)c2C#N)C1Cl (centres unmarked) ... 3
CCOC(=O)OC1C(C)=C(Cl)C(=O)N1c1noc(C(C)(C)C)c1C#N (centres unmarked) ... 3

Next compound, Pre-emergence herbicidal damage score, ZEAMX to be filled in.
Request: API: value(readout= Pre-emergence herbicidal damage score, ZEAMX, system= a variety of test species, query= CC1=C(Cl)C(=O)N(c2cc(C(C)(C)C)on2)C1OC(=O)OCC(C)C (centres unmarked) )
Response: 3

###

Tested on: a variety of test species
Experiment: Pre-emergence herbicidal activity (glasshouse, sprayed one day after sowing, evaluated after 13 days)
Assay type: in vivo
Parameters: key: 5=total damage to plant; 0=no damage to plant
Conditions: ZEAMX, application pre-emergence, rate 1000 g/Ha, scale 0-5
Experimental: Seeds of a variety of test species were sown in standard soil in pots. […] After 13 days, the test was evaluated (5=total damage to plant; 0=no damage to plant).
result.type: Pre-emergence herbicidal damage score, ZEAMX
In your answer, state the number alone without any accompanying words.

COc1ccccc1OC(=O)OC1C(C)=C(Cl)C(=O)N1c1cc(C(C)(C)C)on1 (centres unmarked) ... 0
CCOC(C)(C)CCCc1cc(N2C(=O)C(Cl)=C(C)C2O)no1 (centres unmarked) ... 1
CCCC(C)(C)c1onc(N2C(=O)C(Cl)=C(C)C2O)c1C#N (centres unmarked) ... 3
C#CCNC1=C(Cl)C(=O)N(c2cc(C(C)(C)C)on2)C1O (centres unmarked) ... 3

Request: Pre-emergence herbicidal damage score, ZEAMX for CC1=C(Cl)C(=O)N(c2noc(C(C)C)c2C#N)C1O (centres unmarked) ?
Response: 3

###

Below is a list of entries, each paired with its recorded Pre-emergence herbicidal damage score, ZEAMX value.
System: a variety of test species
Test: Pre-emergence herbicidal activity (glasshouse, sprayed one day after sowing, evaluated after 13 days)
Assay type: in vivo
Conditions: ZEAMX, application pre-emergence, rate 1000 g/Ha, scale 0-5
Procedure: Seeds of a variety of test species were sown in standard soil in pots. […] After 13 days, the test was evaluated (5=total damage to plant; 0=no damage to plant).
Just the number, please.

Request: May I ask what Pre-emergence herbicidal damage score, ZEAMX has been recorded for CCC1=C(I)C(=O)N(c2cc(C(C)(C)C)on2)C1O (stereo not shown) ?
Response: 1

Request: Now consider CCOC1=C(C)CN(c2cc(C(C)(C)C#N)on2)C1=O .
Response: 2

Request: How about this compound: CC1=C(Cl)C(=O)N(c2cc(C(C)(C)C)on2)C1OC(=O)c1sccc1Cl (stereo not shown)
Response: 0

Request: Try C=CC(C)(C)c1cc(N2C(=O)C(Cl)=C(C)C2O)no1 (stereo not shown) next.
Response: 3

Request: Same question for CCSC(=O)OC1C(C)=C(Cl)C(=O)N1c1cc(C(C)(C)C)on1 (stereo not shown) please.
Response: 2

Request: # repeat for COC1=C(Cl)C(O)N(c2cc(C(C)(C)C)on2)C1=O (stereo not shown) [E1]
Response: 2

Request: What about this compound? CC1=C(Cl)C(=O)N(c2cc(CC(C)C)on2)C1O (stereo not shown)
Response: 1

Request: What do we get for COC1=C(C)C(=O)N(c2noc(C(C)C)c2C#N)C1O (stereo not shown) ?
Response: 2

Request: Can you handle CCc1onc(N2C(=O)C(Cl)=C(C)C2O)c1C#N (stereo not shown) next?
Response: 2

Request: Same read-out for C=CCC(C)(C)c1cc(N2C(=O)C(Cl)=C(C)C2O)no1 (stereo not shown) ?
Response: 2
